Catalogue of PBM E-score values
Target: Stp1 (UniProt B3LFK1)
Sequence: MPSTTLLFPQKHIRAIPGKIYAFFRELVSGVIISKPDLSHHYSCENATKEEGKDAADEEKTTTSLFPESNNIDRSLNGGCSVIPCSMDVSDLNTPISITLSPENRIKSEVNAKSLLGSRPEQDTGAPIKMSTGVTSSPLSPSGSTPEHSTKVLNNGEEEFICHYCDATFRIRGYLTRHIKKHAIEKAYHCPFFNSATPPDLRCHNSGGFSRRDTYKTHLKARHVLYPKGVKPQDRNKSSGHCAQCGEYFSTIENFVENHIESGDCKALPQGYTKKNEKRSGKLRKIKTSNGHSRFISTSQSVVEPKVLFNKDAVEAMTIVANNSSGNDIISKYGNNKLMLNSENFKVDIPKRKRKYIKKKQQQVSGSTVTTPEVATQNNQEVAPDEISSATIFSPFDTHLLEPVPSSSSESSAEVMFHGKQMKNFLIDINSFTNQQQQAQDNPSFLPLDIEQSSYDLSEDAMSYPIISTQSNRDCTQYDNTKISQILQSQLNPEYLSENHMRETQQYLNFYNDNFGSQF
Assay: PBM E-score (8-mer binding enrichment) (E-score (-0.5 to 0.5)); higher = stronger / more preferred TF binding
Settings: protein concentration: 200 nM; construct: GST-full length
In all, about 33,000 sequences were measured (“E-score (-0.5 to 0.5)”: median about -0.016, highest 2% from about 0.32 on). The entries come from a sample that favours the highest values as a whole.
Keep the answer to the number alone.

Residue codes	PBM E-score
AAGGCCGC	0.314
AATACGGT	0.0778

Exercise: Recorded PBM E-score for AGCGCGCG , please?
Solution: 0.196

Exercise: Also GCCGTAGA ?
Solution: 0.427

Exercise: Likewise for CATACGGC ?
Solution: 0.472
